System: PPARg homodimer (NR concentration 180 nM)
Experiment: PBM binding z-score (relative to random genomic background probes); higher = stronger binding; sequences stand for … in GC…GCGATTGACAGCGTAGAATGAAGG
measurement-type: PBM binding z-score

1. AGAATGAGGTTACCAAAGCTCAGGGAAACGCTTG | 0.125
2. CCTACTGGGCCACGCAAGGTCATTGATTCAGTGA | 2.02
3. ACTATTAGGTGACTTAGGGCAACCGATACGACGC | 0.861
4. ATCTCTAAGTAAAGTTCAGTGAAAGATCGATAGA | 1.44
5. ATCTCGAGGTAAAGATAGTTCAGTGAATGCAAAT | 0.0262
6. CCGAGTGGGGCAAAGGTTACCATACTCAGTACGA | 3
7. ATCGAAACGTCGAGGTGAGTATAGAGAAAGGGAA | -0.637
8. CGAACTAGGTCATCAAGGACAGTGAATACATTGA | 1.45
9. CCTACTGGGCCATTCAGAGGTCATAGATCATATG | 2.01
10. CCTACTGGGCCCAAAAGGTCATTGATGCCGATAA | 2.86
11. ATATGTAGGTTAGCTGGGGTCAATCAGACTAGGC | 2.34
12. CGTCAAAGTTCAACTAAGGAAACGTAAAGCACGC | 3.9
13. TCTGCTAGGTCAACAATGGTCAGCTAATCTGCTA | 1.23
14. CGTCCAAGGTCAAAGGTCAGTTAAGAGATGACGG | 3.01
15. TCTATTAGTTGATTACGGCAACCGAAACAGCGGA | 1.11
16. TCGAGTAGGTTAGGGGCATTCAGAATGGCGTCGA | 1.13
17. AGAATCAGGTTATTAAGATCAGGGAATTGCGGTC | 1.29
18. AGAATGAGGTTAAGATGAGGGAAACAGAATACAT | 0.984
19. CGTCCAAGGTCAAAGGTGAGTGAAGAGATGACGG | 2.01
20. AGAATGAGGTTATACGTAGATCTGGGAAGAAAGT | 0.546
21. TCTCGGAGGACACGAAGGTCAGACCTTTCCAGAG | 1.39
22. TCATATAGGTGAACAGGTGAAAGTCCGTAAGTTA | 1.1
23. CCTACTGGGCCATCAGGCCATTGATATCAACGTT | 0.142
24. ACTAGGAGGCCAAGTTTGGGTCACTCAAACAAAG | 1.15
25. ATCTCTAGGTAAAGTTCAATGAAAGATCGATAGA | 1.79
26. GCTAGCAGGCCATTTGGGTCACTCGATGACGGGC | -0.101
27. ATCTCTACGTAAAAGTTCAGTGAATCCCGAGGAT | 0.954
28. CAAACTGGGTCAAGAGGTCAAAGTCCGCTTCCCG | 5.48
29. AGTCAAAGTTGACTAGGTAACGTAAGATTCAGCT | -0.383
30. CCTAATGGGCCATTCAGAGGTCATTGATCATATG | 2.02
31. ATCTCTAGGTAAAAGTTTAGTGAATCCCGAGGAT | 0.897
32. TTACCAAGGTGAAGGTCGTTGGTCCCTCTGTAGA | 0.993
33. CCCAGCAGGCCAGGGTCACTCAAGCATTTCGCTT | 0.406
34. CATACAGGGTCAGCTAGGCGAGAGTAGGGACGGC | 1.41
35. CCTACAGGGTCAGCTAGGCCAGAGTAGGGACGGC | 1.25
36. CGAACTAGGTCATTCAGGACAGTGAATACATTGA | 1.19
37. ATATGTAGATTACATCCGGGTCATTCAGGCTATG | 1.18
38. GGAACGAGGGCAAGTTGTTAGCAGAGTTTGATGG | 0.194
39. CAAACTAGATCACCGGAAGGTCAAAGTCCGCATG | 2.31
40. GCTTGTAGATCAAGGATAAGAAAGACTAAGCTAA | -0.571
41. TTACCAAGGGGAAAGGTCGTTGATGCACGCCTTG | 1.27
42. AGAACGAGGGCCCGCTGAGTTGATAGCAGAGTAG | -1.15
43. CCTAGTTGGTCAGAAGGTCACACACCGGATATGA | 4.39
44. TCGAGTAGGTGAGTCGGGGCATTCAGCCAACATA | -0.137
45. TCTATCAGGCCAGAGGGTCACTCAAGAGGTACGG | 1.01
46. TCTCTGAGGACACGAAAGGTCAGAGCTCGACATC | 2.33
47. GCTATTAGTGGAAAGGGCAACCGAATGATTCTCG | 0.772
48. ATTTCTAGGTAACAAGTTCAGTGAAAGAGAGGAC | 1.94
49. CAAACTAGGTCAAATGTCAAAGTCGAGCCAACCA | 2.71
50. GGAACGAGGGCAAGTTTATAGCAGAGTTTGATGG | 0.767
51. GCTGACGGGTCAAAGGTTATAGCATGAATAGAAT | 3.42
